Molecular target: PI3kγ (Homo sapiens, UniProt P48736)
Sequence (P48736 whole entry): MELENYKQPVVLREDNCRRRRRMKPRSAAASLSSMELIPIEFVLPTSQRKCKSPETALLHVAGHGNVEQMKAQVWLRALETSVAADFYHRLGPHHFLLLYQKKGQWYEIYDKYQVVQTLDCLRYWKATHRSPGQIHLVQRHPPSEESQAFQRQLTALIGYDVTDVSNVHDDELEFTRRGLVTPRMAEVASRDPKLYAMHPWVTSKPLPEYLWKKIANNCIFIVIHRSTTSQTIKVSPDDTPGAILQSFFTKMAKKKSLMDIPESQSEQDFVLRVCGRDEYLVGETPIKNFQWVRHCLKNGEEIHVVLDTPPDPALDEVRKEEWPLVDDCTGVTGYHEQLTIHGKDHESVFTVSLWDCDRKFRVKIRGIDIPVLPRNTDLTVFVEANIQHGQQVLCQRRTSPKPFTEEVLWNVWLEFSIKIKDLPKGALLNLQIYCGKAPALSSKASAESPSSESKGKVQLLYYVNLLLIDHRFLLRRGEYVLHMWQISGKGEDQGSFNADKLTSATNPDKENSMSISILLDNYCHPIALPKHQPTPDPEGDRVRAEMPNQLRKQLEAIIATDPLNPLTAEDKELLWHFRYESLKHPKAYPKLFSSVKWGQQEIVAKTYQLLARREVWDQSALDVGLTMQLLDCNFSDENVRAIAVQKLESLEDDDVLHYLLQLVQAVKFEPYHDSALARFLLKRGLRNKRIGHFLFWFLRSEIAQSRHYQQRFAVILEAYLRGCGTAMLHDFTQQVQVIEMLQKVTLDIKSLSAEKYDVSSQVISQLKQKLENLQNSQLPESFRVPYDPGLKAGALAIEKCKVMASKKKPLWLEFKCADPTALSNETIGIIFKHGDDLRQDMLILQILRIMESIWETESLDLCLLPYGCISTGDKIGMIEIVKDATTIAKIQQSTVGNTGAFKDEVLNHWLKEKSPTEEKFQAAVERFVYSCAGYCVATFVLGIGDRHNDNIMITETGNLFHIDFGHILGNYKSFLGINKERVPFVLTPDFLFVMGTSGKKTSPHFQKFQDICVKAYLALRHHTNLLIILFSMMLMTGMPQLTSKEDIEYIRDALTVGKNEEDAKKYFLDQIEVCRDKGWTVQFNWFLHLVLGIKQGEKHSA
Test: Fluorescent (HTRF) determination of PI3 kinase enzyme activity, PI3Kγ
Assay type: biochemical
Conditions: 100 nM (Examples 60-137)
Measured Quantity: inhibition at 0.1 µM

Molecule	inhibition at 0.1 µM
CNc1ncnc2c1ncn2C(C)c1oc2cccc(F)c2c(=O)c1-c1cccc(F)c1 (stereo not shown)	25 to 50%

inhibition at 0.1 µM reading for CC(C)Oc1ccc(-c2nn(C(C)c3oc4cccc(F)c4c(=O)c3-c3ccc(F)cc3)c3ncnc(N)c23)cc1F (single isomer, unassigned) [Example 95] : 0 to 25%

inhibition at 0.1 µM reading for CC(C)C(=O)Nc1ccc(-c2nn(C(C)c3oc4cccc(F)c4c(=O)c3-c3cccc(F)c3)c3ncnc(N)c23)cc1F (stereo not shown) : 25 to 50%

inhibition at 0.1 µM reading for COC(=O)c1ccc(-c2nn(C(C)c3oc4cccc(F)c4c(=O)c3-c3cccc(F)c3)c3ncnc(N)c23)c(F)c1 (stereo not shown) : 25 to 50%
